tested on: Human immunodeficiency virus 1; experiment: Antiviral activity against Human immunodeficiency virus 1 LAI infected in PHA-stimulated human PBMC; assay type: functional, organism-based
endpoint_label: EC50 (nM)
Numeric answer only, unit nM assumed.

A selection of reference data follows.
[
  {
    "compound": "CCOC(=O)[C@H](C)NP(=O)(OC[C@@H]1OC[C@H](n2cnc3c(N)ncnc32)O1)Oc1ccccc1 (some centres undefined)",
    "quantity_unit": "nM",
    "observed_measurement": 0.56
  },
  {
    "compound": "CCOC(=O)CCc1ccccc1OP(=O)(N[C@@H](C)C(=O)OCC)OC[C@@H]1OC[C@H](n2cnc3c(OC)ncnc32)O1 (some centres undefined)",
    "quantity_unit": "nM",
    "observed_measurement": 420
  },
  {
    "compound": "CCOC(=O)[C@H](C)NP(=O)(OC[C@@H]1OC[C@H](n2cnc3c(NC4CC4)ncnc32)O1)Oc1ccccc1 (some centres undefined)",
    "quantity_unit": "nM",
    "observed_measurement": 86
  }
]

Here is another compound to look at.
Q: Record lookup: for Human immunodeficiency virus 1, what EC50 belongs to COc1ncnc2c1ncn2[C@H]1CO[C@@H](COP(=O)(N[C@@H](C)C(=O)OC(C)C)Oc2ccccc2CCC(=O)OC(C)C)O1 (some centres undefined) ?
Result: 7000
